- system tested: UniProt:P19235
- Sequence (P19235 whole entry): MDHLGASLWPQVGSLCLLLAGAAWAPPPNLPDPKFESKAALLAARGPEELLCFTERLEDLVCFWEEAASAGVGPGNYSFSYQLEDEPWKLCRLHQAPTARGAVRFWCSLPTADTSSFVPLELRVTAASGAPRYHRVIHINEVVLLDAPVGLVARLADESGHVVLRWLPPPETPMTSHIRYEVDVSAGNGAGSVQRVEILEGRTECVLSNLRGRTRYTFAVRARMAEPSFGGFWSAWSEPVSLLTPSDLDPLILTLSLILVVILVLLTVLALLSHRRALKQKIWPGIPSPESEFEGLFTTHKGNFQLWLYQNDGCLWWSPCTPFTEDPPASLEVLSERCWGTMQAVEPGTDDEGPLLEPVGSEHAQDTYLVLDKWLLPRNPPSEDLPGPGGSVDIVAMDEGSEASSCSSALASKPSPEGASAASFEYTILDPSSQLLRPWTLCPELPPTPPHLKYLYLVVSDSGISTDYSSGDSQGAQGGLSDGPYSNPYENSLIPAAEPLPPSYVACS
- procedure summary: Compound was evaluated for inhibition of [125I]EPO binding to Erythropoietin receptor (EBP) at a concentration of 50 uM
Classification by inhibition | ranges: 1: < 30%; 2: ≥ 30% and < 70%; 3: ≥ 70%

molecular string	category
COC(=O)[C@H](CCCCNS(C)(=O)=O)N(C/C=C/c1cccc(Oc2ccccc2)c1)C/C=C/c1cccc(Oc2ccccc2)c1	3
O=C(O)CCCC(=O)NCCCC[C@H](C(=O)NCCCCCCCCCCCCNC(=O)[C@H](CCCCNC(=O)CCCC(=O)O)N(Cc1ccc(OCc2ccccc2)cc1)Cc1ccc(OCc2ccccc2)cc1)N(Cc1ccc(OCc2ccccc2)cc1)Cc1ccc(OCc2ccccc2)cc1	2
COC(=O)[C@H](CCCCNC(=O)OC(C)(C)C)N(Cc1ccc(OCc2ccccc2)cc1)Cc1cccc([N+](=O)[O-])c1	1
COC(=O)[C@H](CCCCNC(N)=O)N(C/C=C/c1cccc(Oc2ccccc2)c1)C/C=C/c1cccc(Oc2ccccc2)c1	3
COC(=O)[C@H](CO)NC/C=C/c1cccc(Oc2ccccc2)c1	1
COC(=O)[C@H](CCC(=O)O)N(C/C=C/c1cccc(Oc2ccc(Cl)c(Cl)c2)c1)C/C=C/c1cccc(Oc2ccc(Cl)c(Cl)c2)c1	2
O=C(O)CCCC(=O)NCCCC[C@@H](C(=O)NCCCOCCOCCOCCCNC(=O)[C@H](CCCCNC(=O)CCCC(=O)O)N(Cc1ccc(OCc2ccccc2)cc1)Cc1ccc(OCc2ccccc2)cc1)N(Cc1ccc(OCc2ccccc2)cc1)Cc1ccc(OCc2ccccc2)cc1	3
COC(=O)[C@H](CCCCNC(=O)OC(C)(C)C)N(Cc1ccc(OCc2ccccc2)cc1)Cc1ccc(OCc2ccccc2)cc1	1
O=C(O)C[C@@H](C(=O)NCCCOCCOCCOCCCNC(=O)[C@H](CC(=O)O)N(Cc1ccc(OCc2ccccc2)cc1)Cc1ccc(OCc2ccccc2)cc1)N(Cc1ccc(OCc2ccccc2)cc1)Cc1ccc(OCc2ccccc2)cc1	2
O=C(O)CCC(=O)NCCCC[C@@H](C(=O)NCCCOCCOCCOCCCNC(=O)[C@H](CCCCNC(=O)CCC(=O)O)N(Cc1ccc(OCc2ccccc2)cc1)Cc1ccc(OCc2ccccc2)cc1)N(Cc1ccc(OCc2ccccc2)cc1)Cc1ccc(OCc2ccccc2)cc1	3
COC(=O)[C@H](CCCCNC(=O)OC(C)(C)C)NC/C=C/c1cccc(Oc2ccccc2)c1	1
O=C(O)CCC(=O)NCCCC[C@H](C(=O)NCCCOCCCCOCCCNC(=O)[C@H](CCCCNC(=O)CCC(=O)O)N(Cc1ccc(OCc2ccccc2)cc1)Cc1ccc(OCc2ccccc2)cc1)N(Cc1ccc(OCc2ccccc2)cc1)Cc1ccc(OCc2ccccc2)cc1	2
COC(=O)[C@H](CCCCN)N(C/C=C/c1cccc(Oc2ccc(C(C)(C)C)cc2)c1)C/C=C/c1cccc(Oc2ccc(C(C)(C)C)cc2)c1	1

Recorded values, source ChEMBL document CHEMBL1133297.
